assay: Metabolic stability in Sprague-Dawley rat hepatocytes; type: in vitro ADME
This listing pairs compounds with measured half-life at 0.1 μM.
Kindly provide the numeric value in h only, without the unit symbol.

COC(=O)N[C@H](C(=O)N[C@@H](Cc1ccccc1)[C@@H](O)CN(Cc1ccc(-c2ccccn2)cc1)NC(=O)[C@@H](NC(=O)OC)C(C)(C)C)C(C)(C)C [Atazanavir, reference compound]    0.228

Using the record for COCCOCCOCCOC(=O)NC(C(=O)NC(Cc1ccccc1)C(O)CN(Cc1ccc(-c2ccccn2)cc1)NC(=O)C(NC(=O)OC)C(C)(C)C)C(C)(C)C (centres unmarked) , report its half-life at 0.1 μM.
1.95

###

Measured fraction unbound at 2 h, 5 μM, listed per entry for reference.
assay: Plasma protein binding by equilibrium dialysis, monkey plasma; type: in vitro ADME; conditions: read-out: Monkey Plasma Protein Binding Fu ± SD

COCCOCCOCCOC(=O)NC(C(=O)NC(Cc1ccccc1)C(O)CN(Cc1ccc(-c2ccccn2)cc1)NC(=O)C(NC(=O)OC)C(C)(C)C)C(C)(C)C (centres unmarked)    0.204

Give its fraction unbound at 2 h, 5 μM value. Item: COC(=O)N[C@H](C(=O)N[C@@H](Cc1ccccc1)[C@@H](O)CN(Cc1ccc(-c2ccccn2)cc1)NC(=O)[C@@H](NC(=O)OC)C(C)(C)C)C(C)(C)C [Atazanavir, reference compound]
0.201

###

target: CYP3A4 (Homo sapiens (Human)); experiment: CYP450 inhibition in human liver microsomes: CYP3A4; settings: read-out: CYP3A4 IC50 Testosterone; probe substrate testosterone;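 note: incubation at 37 °C started by adding 1 mM NADPH, with formation of the probe metabolite measured via LC-MS/MS or fluorescent detection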
Sequence (P08684 whole entry): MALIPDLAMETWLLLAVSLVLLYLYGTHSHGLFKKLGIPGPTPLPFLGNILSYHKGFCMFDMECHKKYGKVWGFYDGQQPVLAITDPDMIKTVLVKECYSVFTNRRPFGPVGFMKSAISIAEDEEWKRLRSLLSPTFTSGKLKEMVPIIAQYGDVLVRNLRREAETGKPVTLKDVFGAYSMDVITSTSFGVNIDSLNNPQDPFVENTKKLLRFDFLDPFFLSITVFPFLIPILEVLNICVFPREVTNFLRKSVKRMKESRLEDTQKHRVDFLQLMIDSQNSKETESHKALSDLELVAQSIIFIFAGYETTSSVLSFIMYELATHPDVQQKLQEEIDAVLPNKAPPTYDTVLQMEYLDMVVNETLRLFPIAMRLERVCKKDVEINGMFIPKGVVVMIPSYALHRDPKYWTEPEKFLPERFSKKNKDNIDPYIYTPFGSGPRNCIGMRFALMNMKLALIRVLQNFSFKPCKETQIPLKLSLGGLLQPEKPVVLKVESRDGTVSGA
measuredQuantity: IC50 (µM)
Value expressed in µM; do not type the unit.

Reference set, count: 2
COCCOCCOCCOc1ccc(C[C@H](NC(=O)O[C@H]2CO[C@H]3OCC[C@H]32)C(O)CN(CC(C)C)S(=O)(=O)c2ccc(N)cc2)cc1 (some centres unmarked) [mPEG3-O-Darunavir]    4.9
COCCOCCOCCOCCOCCNc1ccc(S(=O)(=O)N(CC(C)C)CC(O)[C@H](Cc2ccccc2)NC(=O)O[C@H]2CO[C@H]3OCC[C@H]32)cc1 (some centres unmarked) [mPEG5-N-Darunavir]    4

I'm curious: which IC50 was measured for COCCOC(=O)NC(C(=O)NC(Cc1ccccc1)C(O)CN(Cc1ccc(-c2ccccn2)cc1)NC(=O)C(NC(=O)OC)C(C)(C)C)C(C)(C)C (centres unmarked) [mono-mPEG1-Atazanavir] tested on CYP3A4 (Homo sapiens (Human))?
10.4

###

Quick reference: Monkey Plasma Protein Binding Fu ± SD of the listed items.
Test system: monkey plasma proteins
Assay: Plasma protein binding by equilibrium dialysis, monkey plasma
Assay type: in vitro ADME
Details: fraction unbound
Method: In assays to estimate binding of test compounds to plasma proteins, test compound solutions (5 μM) are prepared in buffer and species-specific plasma (final DMSO concentration 0.5%). The plasma-containing solution is added to one side of the membrane of an equilibrium dialysis system, and the plasma-free is added to the other side. Dialysis was allowed to reach equilibrium by incubation for two hours at 37° C. The concentration of compound on both sides of the membrane was measured using LC-MS/MS.
No unit in the answer, only the number.

Recorded Monkey Plasma Protein Binding Fu ± SD, per entry:
COCCOCCOCCOCCOCCOC(=O)NC(C(=O)NC(Cc1ccccc1)C(O)CN(Cc1ccc(-c2ccccn2)cc1)NC(=O)C(NC(=O)OC)C(C)(C)C)C(C)(C)C (stereo not shown) [mono-mPEG5-Atazanavir]    0.383
COCCOCCOCCOCCOCCOCCOC(=O)NC(C(=O)NC(Cc1ccccc1)C(O)CN(Cc1ccc(-c2ccccn2)cc1)NC(=O)C(NC(=O)OC)C(C)(C)C)C(C)(C)C (stereo not shown) [mono-mPEG6-Atazanavir]    0.598
COCCOC(=O)NC(C(=O)NC(Cc1ccccc1)C(O)CN(Cc1ccc(-c2ccccn2)cc1)NC(=O)C(NC(=O)OC)C(C)(C)C)C(C)(C)C (stereo not shown) [mono-mPEG1-Atazanavir]    0.246

May I ask what Monkey Plasma Protein Binding Fu ± SD has been recorded for COCCOCCOCCOCCOCCOCCOCCOC(=O)NC(C(=O)NC(Cc1ccccc1)C(O)CN(Cc1ccc(-c2ccccn2)cc1)NC(=O)C(NC(=O)OC)C(C)(C)C)C(C)(C)C (stereo not shown) [mono-mPEG7-Atazanavir] ?
0.570

###

target: UniProt P08684; experiment: Metabolic stability in CYP3A4-expressing Bactosomes; format: in vitro ADME; conditions: 5 μM
measuredQuantity: 3A4 t1/2 ± SEM (min)
Quick reminder: number only, in min, skip the unit.

COCCOCCOCCOCCOCCOCCOCCNc1ccc(S(=O)(=O)N(CC(C)C)CC(O)[C@H](Cc2ccccc2)NC(=O)O[C@H]2CO[C@H]3OCC[C@H]32)cc1 (stereo partly shown) [mPEG7-N-Darunavir]    13.9
COCCOCCOCCNc1ccc(S(=O)(=O)N(CC(C)C)CC(O)[C@H](Cc2ccccc2)NC(=O)O[C@H]2CO[C@H]3OCC[C@H]32)cc1 (stereo partly shown) [mPEG3-N-Darunavir]    66.6
COCCOCCOCCOCCOCCNc1ccc(S(=O)(=O)N(CC(C)C)CC(O)[C@H](Cc2ccccc2)NC(=O)O[C@H]2CO[C@H]3OCC[C@H]32)cc1 (stereo partly shown) [mPEG5-N-Darunavir]    37.4

What measured 3A4 t1/2 ± SEM goes with COCCOCCOCCOC(=O)N[C@@H](C(=O)NC(Cc1ccccc1)[C@@H](O)CN(Cc1ccc(-c2ccccn2)cc1)NC(=O)[C@H](NC(=O)OCCOCCOCCOC)C(C)(C)C)C(C)(C)C (stereo partly shown) [di-mPEG3-Atazanavir] ?
95.8

###

Measured IC50, listed per entry for reference.
molecular target: recombinant HIV-1 protease (Human immunodeficiency virus type 1 group M subtype B (isolate HXB2) (HIV-1)); experiment: Enzyme inhibition of purified HIV-1 protease (SensoLyte 520 HIV-Protease Assay Kit); assay type: biochemical; conditions: read-out: IC50 ± SD
All answers are understood in nM, so give the number only.

Worked set:
CCC(C1=C(O)CC(CCCNC(=O)OCCOCCOCCOC)(CCc2ccccc2)OC1=O)c1cccc(NS(=O)(=O)c2ccc(C(F)(F)F)cn2)c1 (mixture of isomers)    0.617
COCCOCCOCCOCCOCCOCCOCCOC(=O)NC(C(=O)NC(Cc1ccccc1)C(O)CN(Cc1ccc(-c2ccccn2)cc1)NC(=O)C(NC(=O)OC)C(C)(C)C)C(C)(C)C (stereo not drawn)    1.29

Now consider a different molecule.
What IC50 value was documented for this molecule, CCC[C@@]1(CCc2ccccc2)CC(O)=C([C@H](CC)c2cccc(N(CCOCCOCCOCCOCCOCCOCCOC)S(=O)(=O)c3ccc(C(F)(F)F)cn3)c2)C(=O)O1 [mPEG7-amide-Tipranavir] ?
12.2

###

assay: Metabolic stability in cryopreserved human hepatocytes; conditions: human, cryopreserved human hepatocytes, CLint ± SEM, human hepatocytes, 3 uM, incubated up to one hour
measuredQuantity: hepatocyte CLint at 3 μM (µL/min/1e6 cells)
State the answer as a number, implicitly in µL/min/1e6 cells.

Find the recorded hepatocyte CLint at 3 μM belonging to COC(=O)N[C@H](C(=O)N[C@@H](Cc1ccccc1)[C@@H](O)CN(Cc1ccc(-c2ccccn2)cc1)NC(=O)[C@@H](NC(=O)OC)C(C)(C)C)C(C)(C)C [Atazanavir, reference compound] and report it.
5.15

###

tested on: Caco-2 cells; test: Bi-directional permeability in Caco-2 monolayers; conditions: Caco-2 monolayers, apical to basolateral
measuredQuantity: A→B, ×10^−6 (cm/s)
Numbers only here, please. The scale is cm/s.

COCCOCCOCCOCCOCCOCCOCCNc1ccc(S(=O)(=O)N(CC(C)C)CC(O)[C@H](Cc2ccccc2)NC(=O)O[C@H]2CO[C@H]3OCC[C@H]32)cc1 (some centres unmarked)    0.32

Suppose we examine the molecule COCCOCCOCCOCCOCCNc1ccc(S(=O)(=O)N(CC(C)C)CC(O)[C@H](Cc2ccccc2)NC(=O)O[C@H]2CO[C@H]3OCC[C@H]32)cc1 (some centres unmarked) ; what A→B, ×10^−6 value has been reported?
1.07

Given the molecule COCCOCCOCCOCCOCCOCCOCCOc1ccc(C[C@H](NC(=O)O[C@H]2CO[C@H]3OCC[C@H]32)C(O)CN(CC(C)C)S(=O)(=O)c2ccc(N)cc2)cc1 (some centres unmarked) , what is its reported A→B, ×10^−6?
0.19

Fill blank: measured A→B, ×10^−6 of the molecule COCCOCCOCCOc1ccc(C[C@H](NC(=O)O[C@H]2CO[C@H]3OCC[C@H]32)C(O)CN(CC(C)C)S(=O)(=O)c2ccc(N)cc2)cc1 (some centres unmarked) is ____.
0.51

Endpoint output: A→B, ×10^−6 of COCCOCCOCCNc1ccc(S(=O)(=O)N(CC(C)C)CC(O)[C@H](Cc2ccccc2)NC(=O)O[C@H]2CO[C@H]3OCC[C@H]32)cc1 (some centres unmarked) . Value?
2.52

###

experiment: Metabolic stability in human liver microsomes; details: human liver microsomes, 3 μM
Here the recorded CLint ± SEM is given for each entry.
Please state the figure in μL/min/mg protein; there is no need to write the unit.

Some solved cases for reference:
COCCOC(=O)NC(C(=O)NC(Cc1ccccc1)C(O)CN(Cc1ccc(-c2ccccn2)cc1)NC(=O)C(NC(=O)OC)C(C)(C)C)C(C)(C)C (stereo not shown) [mono-mPEG1-Atazanavir]    181
COCCOCCOCCOC(=O)N[C@@H](C(=O)NC(Cc1ccccc1)[C@@H](O)CN(Cc1ccc(-c2ccccn2)cc1)NC(=O)[C@H](NC(=O)OCCOCCOCCOC)C(C)(C)C)C(C)(C)C (stereo partly shown) [di-mPEG3-Atazanavir]    190
COCCOCCOCCOCCOCCOC(=O)NC(C(=O)NC(Cc1ccccc1)C(O)CN(Cc1ccc(-c2ccccn2)cc1)NC(=O)C(NC(=O)OC)C(C)(C)C)C(C)(C)C (stereo not shown) [mono-mPEG5-Atazanavir]    108
COCCOCCOCCOCCOCCOCCOCCNc1ccc(S(=O)(=O)N(CC(C)C)CC(O)[C@H](Cc2ccccc2)NC(=O)O[C@H]2CO[C@H]3OCC[C@H]32)cc1 (stereo partly shown) [mPEG7-N-Darunavir]    356

Report CLint ± SEM for COCCOCCOCCOCCOCCOCCOCCOc1ccc(C[C@H](NC(=O)O[C@H]2CO[C@H]3OCC[C@H]32)C(O)CN(CC(C)C)S(=O)(=O)c2ccc(N)cc2)cc1 (stereo partly shown) [mPEG7-O-Darunavir] please.
113

What does the data say about its CLint ± SEM? Entry: COCCOCCOCCOCCOCCOCCOCCOC(=O)NC(C(=O)NC(Cc1ccccc1)C(O)CN(Cc1ccc(-c2ccccn2)cc1)NC(=O)C(NC(=O)OC)C(C)(C)C)C(C)(C)C (stereo not shown) [mono-mPEG7-Atazanavir]
71.0

Recorded CLint ± SEM for COCCOCCOCCNc1ccc(S(=O)(=O)N(CC(C)C)CC(O)[C@H](Cc2ccccc2)NC(=O)O[C@H]2CO[C@H]3OCC[C@H]32)cc1 (stereo partly shown) [mPEG3-N-Darunavir] , please?
385

Where do these numbers come from? They come from patent US10806794B2.
